# Tested on: Candida albicans
# Experimental Conditions: Concentration 32 ug.mL-1; ASSAY_TEST Inhibition of Fungal Growth; detection method Absorption (OD530)
# Description: Antifungal activity against Candida albicans ATCC 90028 (CO-ADD:FG_001); MIC in YNB media using NBS plates, by OD630
Entries with a potency or affinity are not part of this list.
Assay Endpoint: Inhibition (%)
Please reply with the bare figure in % and do not write the unit itself.

Prompt line: Write down Inhibition measured for item `O=C(CSc1nnc2c(=O)n(-c3ccc(Br)cc3)ccn12)c1ccc(F)cc1`
Response line: 5.26

Prompt line: Write down Inhibition measured for item `CCCCc1ccc(NC(=O)Cn2nc3ccc(-c4ccc(C)c(C)c4)nn3c2=O)cc1`
Response line: 1.02

Prompt line: Write down Inhibition measured for item `Cc1ccc(CNC(=O)CSc2nnc3c4cc(-c5ccc(F)cc5)nn4ccn23)cc1`
Response line: 2.7

Prompt line: Write down Inhibition measured for item `O=C(CSc1nc2ccccc2n2cnnc12)NCc1ccccc1Cl`
Response line: 0.3

Prompt line: Write down Inhibition measured for item `CCc1nnc2c(S(=O)(=O)N(Cc3ccc(C)cc3)c3ccc(C(C)C)cc3)cccn12`
Response line: 9.31

Prompt line: Write down Inhibition measured for item `O=S(=O)(c1ccc2nncn2c1)N(Cc1cc(F)cc(F)c1)c1ccc(F)cc1`
Response line: 0.51

Prompt line: Write down Inhibition measured for item `CC(C)CCn1c(=O)c2ccc(C(=O)NC3CCCC3)cc2n2c(=O)n(CC#N)nc12`
Response line: 2.41

Prompt line: Write down Inhibition measured for item `CCOc1ccc(-n2ccn3c(SCC(=O)c4ccc(OC)cc4)nnc3c2=O)cc1`
Response line: 0.38

Prompt line: Write down Inhibition measured for item `O=C(Cn1nc2ccc(Sc3cccc(F)c3)nn2c1=O)Nc1cccc(C(F)(F)F)c1`
Response line: 0.5

Prompt line: Write down Inhibition measured for item `CC(C)CCn1c(=O)c2sccc2n2c(=O)n(CC(=O)N3CCC(Cc4ccccc4)CC3)nc12`
Response line: 0.93

Prompt line: Write down Inhibition measured for item `O=c1c2sccc2n2c(=O)n(Cc3ccc(Cl)cc3)nc2n1Cc1cccs1`
Response line: 32.28

Prompt line: Write down Inhibition measured for item `COc1ccccc1N1CCN(C(=O)CSc2nnc3c(=O)n(-c4ccc(F)cc4)ccn23)CC1`
Response line: 1.66

Prompt line: Write down Inhibition measured for item `COc1cccc(-n2ccn3c(=O)n(Cc4ccc([N+](=O)[O-])cc4)nc3c2=O)c1`
Response line: 4.1

Prompt line: Write down Inhibition measured for item `COc1ccc(-c2cc3c4nnc(SCC(=O)Nc5cccc(Cl)c5C)n4ccn3n2)cc1`
Response line: 6.33

Prompt line: Write down Inhibition measured for item `Cc1ccc(-c2cc3c4nn(CC(=O)Nc5c(C)cccc5C)c(=O)n4ccn3n2)cc1`
Response line: -0.52

Prompt line: Write down Inhibition measured for item `COc1ccc(CCn2c(=O)c3sccc3n3c(=O)n(Cc4ccccc4Cl)nc23)cc1OC`
Response line: -1.24

Prompt line: Write down Inhibition measured for item `Cc1ccc(CNC(=O)Cn2nc3c(Sc4cccc(F)c4)nccn3c2=O)cc1`
Response line: 4.04

Prompt line: Write down Inhibition measured for item `COc1cc(NC(=O)Cn2nc3c(Oc4ccccc4)nccn3c2=O)cc(OC)c1OC`
Response line: 3.29

###

# System: Cryptococcus neoformans
# Experimental Conditions: Concentration 32 ug.mL-1; ASSAY_TEST Inhibition of Fungal Growth; detection method Resazurin; Absorption (OD600-OD570); plate type 384well; NBS; CORNING #3640
# Description: Antifungal activity against Cryptococcus neoformans H99 ATCC 208821 (CO-ADD:FG_002); MIC in YNB media using NBS plates, by Resazurin OD(600-570)
Potency and affinity values are given separately.
Assay Endpoint: Inhibition (%)
Please reply with the bare figure in % and do not write the unit itself.

Prompt line: Write down Inhibition measured for item `Cc1ccc(C)c(-c2cc3c4nnc(SCC(=O)Nc5cccc(Br)c5)n4ccn3n2)c1`
Response line: -19.95

Prompt line: Write down Inhibition measured for item `Cc1ccc(-c2ccc3nn(Cc4ccc5c(c4)OCO5)c(=O)n3n2)cc1C`
Response line: -18.91

Prompt line: Write down Inhibition measured for item `O=C(CCc1nnc2ccc(-c3ccc(Cl)cc3)nn12)NCc1ccc(F)cc1Cl`
Response line: -15.23

Prompt line: Write down Inhibition measured for item `COc1ccc(OC)c(NC(=O)Cn2nc3c(Sc4ccccc4)nc4ccccc4n3c2=O)c1`
Response line: -24.8

Prompt line: Write down Inhibition measured for item `COc1ccc(C)cc1NC(=O)Cn1nc2c3cc(-c4ccc(C)c(C)c4)nn3ccn2c1=O`
Response line: -9.82

Prompt line: Write down Inhibition measured for item `C=Cc1ccc(CSc2nnc3c(=O)n(-c4ccc(Br)cc4)ccn23)cc1`
Response line: -7.54

Prompt line: Write down Inhibition measured for item `CCc1nnc2c(S(=O)(=O)N(Cc3ccccc3Cl)c3ccccc3)cccn12`
Response line: -4.36

Prompt line: Write down Inhibition measured for item `COc1ccc(-c2cc3c4nnc(SCC(=O)NCc5ccc(C)cc5)n4ccn3n2)cc1`
Response line: -10.46

Prompt line: Write down Inhibition measured for item `O=C(Cn1nc2c(Sc3ccccc3)nccn2c1=O)Nc1ccc(Br)cc1F`
Response line: -9.93

Prompt line: Write down Inhibition measured for item `COc1ccc(-c2cc3c4nn(CC(=O)NCc5ccc(Cl)cc5)c(=O)n4ccn3n2)cc1`
Response line: -24.2

###

Can you tell me Inhibition for the items I'm about to list?
# Tested on: Cryptococcus neoformans
# Experimental Conditions: Concentration 32 ug.mL-1; ASSAY_TEST Inhibition of Fungal Growth; detection method Resazurin; Absorption (OD600-OD570); plate type 384well; NBS; CORNING #3640
Measured potencies and affinities stand elsewhere.
Please reply with the bare figure in % and do not write the unit itself.

Prompt line: For Cryptococcus neoformans, give Inhibition of the listed molecule: `O=C(Cn1nc2c3cc(-c4ccc(Cl)cc4)nn3ccn2c1=O)Nc1ccc(F)cc1`
Response line: -10.24

Prompt line: For Cryptococcus neoformans, give Inhibition of the listed molecule: `Cn1c(=O)c2sccc2n2c(=O)n(Cc3cccc(Br)c3)nc12`
Response line: -9.95

Prompt line: For Cryptococcus neoformans, give Inhibition of the listed molecule: `Cc1nnc2ccc(S(=O)(=O)N(Cc3ccccc3Cl)c3cccc(F)c3)cn12`
Response line: -10.07

###

# Tested on: Klebsiella pneumoniae
# Experimental Conditions: Concentration 32 ug.mL-1;; ASSAY_TEST Inhibition of Bacterial Growth; detection method Absorption (OD600); MEDIA CAMHB; plate type 384well; NBS; CORNING #3640; time 18 hr
# Description: Antibacterial activity against Klebsiella pneumoniae MDR ATCC 70063 (CO-ADD:GN_003); MIC in CAMBH media using NBS plates, by OD(600)
Measured potencies and affinities stand elsewhere.
Assay Endpoint: Inhibition
Give the number first and the unit second.

Prompt line: Write down Inhibition measured for item `CCOc1ccccc1NC(=O)Cn1nc2c3c4c(sc3ncn2c1=O)CCCC4`
Response line: 2.08%

Prompt line: Write down Inhibition measured for item `O=c1n(Cc2ccc3c(c2)OCO3)nc2c(S(=O)(=O)N3CCCC3)cccn12`
Response line: 5.42%

Prompt line: Write down Inhibition measured for item `CCOC(=O)N1CCN(C(=O)CCc2nnc3c4cc(-c5ccc(F)cc5)nn4ccn23)CC1`
Response line: 12.38%

Prompt line: Write down Inhibition measured for item `CCOc1ccc(-n2ccn3c(=O)n(CC(=O)Nc4ccc(Br)cc4)nc3c2=O)cc1`
Response line: 8.93%

Prompt line: Write down Inhibition measured for item `Cc1ccc(Cl)cc1NC(=O)CSc1nnc2c(=O)n(-c3ccccc3)ccn12`
Response line: 9.22%

Prompt line: Write down Inhibition measured for item O=C(CSc1nnc2c(=O)n(-c3ccc(F)cc3)ccn12)NCC1CCCO1 (centres undefined)
Response line: 7.61%

Prompt line: Write down Inhibition measured for item `CC(=O)c1ccc(NC(=O)Cn2c(=O)c3nnc(C(C)C)n3c3ccccc32)cc1`
Response line: 9.51%

Prompt line: Write down Inhibition measured for item `CCOc1ccc(-n2ccn3c(SCC#N)nnc3c2=O)cc1`
Response line: 5.38%

Prompt line: Write down Inhibition measured for item `O=c1c2sccc2n2c(=O)n(Cc3ccccc3Cl)nc2n1CCc1ccccc1`
Response line: 12.78%

###

# Test system: Candida albicans
# Experimental Conditions: Concentration 32 ug.mL-1; ASSAY_TEST Inhibition of Fungal Growth; detection method Absorption (OD530)
Potency and affinity values are given separately.
Can you tell me Inhibition for the items I'm about to list?
Please reply with the bare figure in % and do not write the unit itself.

Prompt line: Write down Inhibition measured for item `O=c1c2nnc(SCc3ccccc3Cl)n2ccn1-c1ccc(F)c(F)c1`
Response line: 3.72

Prompt line: Write down Inhibition measured for item `COC(=O)c1ccc(NC(=O)Cn2nc3nc(N4CCCCCC4)ccn3c2=O)cc1`
Response line: 5.24

Prompt line: Write down Inhibition measured for item `Cc1cccc(C)c1NC(=O)Cn1nc2n(C)c(=O)c3c(c(-c4ccccc4)cn3C)n2c1=O`
Response line: 0.83

Prompt line: Write down Inhibition measured for item `COc1ccccc1-n1ccn2c(SCC(=O)Nc3ccc(F)cc3F)nnc2c1=O`
Response line: 0.36

Prompt line: Write down Inhibition measured for item `COc1ccc(NC(=O)CSc2nnc3c(=O)n(-c4cccc(F)c4)ccn23)cc1OC`
Response line: 3.49

Prompt line: Write down Inhibition measured for item `O=C(Cn1nc2c(SC3CCCCC3)nccn2c1=O)Nc1cccc(Cl)c1`
Response line: 27.21

Prompt line: Write down Inhibition measured for item `COC(=O)c1ccc(NC(=O)Cn2nc3c4cc(-c5ccc(Cl)cc5)nn4ccn3c2=O)cc1`
Response line: 2.64

Prompt line: Write down Inhibition measured for item `O=C(Cn1nc2c(Oc3ccccc3)nccn2c1=O)Nc1ccccc1F`
Response line: -2.47
